Each record here notes measured TGI.
# Test system: LOX IMVI melanoma
# assayMethodText: NCI tumour cell line growth inhibition, 48 h
Give the value in µM but do not write µM after it.

molecule: O=C1/C(=C/c2cccc(Cl)c2)CCCc2ccccc21
experimentalSystem: LOX IMVI melanoma
readoutNumber: 32.8

Problem: Dear colleague, please send me the reported TGI for CCN1CCC(O)(c2ccc(Oc3ccc(Cl)cc3)cc2)C(C(=O)c2ccc(Oc3ccc(Cl)cc3)cc2)C1 (stereo not given) when you can.
Result: 16.5

Problem: Dear colleague, please send me the reported TGI for CC(C)[N+]([O-])(CCCNc1c2ccccc2nc2cccc([N+](=O)[O-])c12)C(C)C when you can.
Result: 0.427

* * *

# Tested on: ACHN renal
# assayMethodText: NCI tumour cell line growth inhibition, 48 h
quantityMeasured: TGI (µM)
Give the value in µM but do not write µM after it.

Use these answered entries as a reference point.
molecule: O=C1NC2c3c(I)sc(I)c3C(=O)C2O1 (centres undefined)
experimentalSystem: ACHN renal
unitText: µM
TGI: 7.89
--
molecule: COc1cc(/C=C/c2cc(/C=C/c3ccc(O)c(OC)c3)n(C(=O)c3ccc(Cl)cc3)n2)ccc1O
experimentalSystem: ACHN renal
unitText: µM
TGI: 13.7
--
molecule: CC1=C(C(=O)OC2CC3CCC2(C)C3(C)C)C2Nc3ccccc3N(C)C2O1 (centres undefined)
experimentalSystem: ACHN renal
unitText: µM
TGI: 11.2
--
molecule: CSC1=N/C(=C\c2ccc(Cl)cc2)C(=O)N1CN1CCCCC1
experimentalSystem: ACHN renal
unitText: µM
TGI: 96.2
--
molecule: COc1ccccc1/C=C/c1ccnc2ccccc12
experimentalSystem: ACHN renal
unitText: µM
TGI: 32.8
--
molecule: Cc1c2ccccc2c(C2C3C(=O)N(c4ccc(Br)cc4)C(=O)C3ON2C(C(N)=O)c2ccccc2)c2ccccc12 (centres undefined)
experimentalSystem: ACHN renal
unitText: µM
TGI: 17.3
--
molecule: CC(=O)O[C@@H]1C2CCC3C(CC[C@@]4(C)C3CC[C@@H]4C(C)N(C)C)[C@@]2(C)CC[C@@H]1NC(=O)C=C(C)C (some centres undefined)
experimentalSystem: ACHN renal
unitText: µM
TGI: 12.8
--
molecule: COc1ccc2ncn(-c3cc(O[C@H](C)c4ccccc4C(F)(F)F)c(C(N)=O)s3)c2c1
experimentalSystem: ACHN renal
unitText: µM
TGI: 25
--
molecule: CC(C)C[C@H](NC(=O)CNC(=O)c1cc(Cl)ccc1Cl)B(O)O
experimentalSystem: ACHN renal
unitText: µM
TGI: 15.8
--
molecule: OC(CNc1ccnc2cc(Cl)ccc12)CNc1ccnc2cc(Cl)ccc12
experimentalSystem: ACHN renal
unitText: µM
TGI: 28.2

Problem: Dear colleague, please send me the reported TGI for Nc1nc(/C=C\c2ccc([N+](=O)[O-])s2)nc(N2CCN(c3ccccc3)CC2)n1 when you can.
Result: 41.4

Problem: Dear colleague, please send me the reported TGI for COc1ccc(Nc2nc3cc(N)cc(N)c3nc2-c2ccccc2)cc1 when you can.
Result: 43.3

Problem: Dear colleague, please send me the reported TGI for Oc1c(Cl)cc(Cl)c(Cl)c1CNCCNCc1c(O)c(Cl)cc(Cl)c1Cl when you can.
Result: 7.22

Problem: Dear colleague, please send me the reported TGI for Cc1c(C)n(CCCN2CCN(C)CC2)c2ccc(Oc3cccc(C(=O)N4CCN(CCc5ccc(F)cc5)CC4)c3)cc12 when you can.
Result: 3.06

Problem: Dear colleague, please send me the reported TGI for Cc1cnc2n1S(=O)(=O)c1cc(C(=O)Nc3cccc4nsnc34)c(Cl)cc1S2 when you can.
Result: 85.5

Problem: Dear colleague, please send me the reported TGI for COc1cc2c(cc1OC(C)C)[C@H](c1ccc(Cl)cc1)N(c1ccc(N(C)CC3CCC(N4CCN(C)C(=O)C4)CC3)cc1)C(=O)C2 (some centres undefined) when you can.
Result: 3.62

Problem: Dear colleague, please send me the reported TGI for COc1ccccc1Nc1cc(O)c2c(=O)cc(-c3ccccc3)oc2c1 when you can.
Result: 13

Problem: Dear colleague, please send me the reported TGI for Cc1cc2nc(NCCN)n(Cc3ccc(F)c(Cl)c3)c2cc1C when you can.
Result: 24.7

Cited source for all entries: PubChem BioAssay (NCI)
